# measured target: P. falciparum Rh5 (Rh5 – basigin interaction) (Plasmodium falciparum, UniProt Q8IFM5)
# Sequence (Q8IFM5 24-526): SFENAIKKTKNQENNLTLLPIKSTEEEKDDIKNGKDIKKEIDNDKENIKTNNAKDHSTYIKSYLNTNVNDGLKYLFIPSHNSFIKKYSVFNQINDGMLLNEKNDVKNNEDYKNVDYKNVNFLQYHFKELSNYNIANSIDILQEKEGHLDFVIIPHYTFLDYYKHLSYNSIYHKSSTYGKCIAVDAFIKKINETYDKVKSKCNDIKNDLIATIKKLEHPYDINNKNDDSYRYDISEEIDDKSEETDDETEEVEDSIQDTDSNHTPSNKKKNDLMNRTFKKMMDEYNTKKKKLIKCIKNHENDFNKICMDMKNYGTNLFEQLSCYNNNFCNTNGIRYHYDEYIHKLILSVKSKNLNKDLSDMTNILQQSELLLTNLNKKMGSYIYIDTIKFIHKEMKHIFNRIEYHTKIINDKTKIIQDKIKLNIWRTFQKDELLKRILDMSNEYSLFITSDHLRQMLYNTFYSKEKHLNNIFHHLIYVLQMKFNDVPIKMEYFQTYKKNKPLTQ
# protocol description: biochemical
# Type: binding

{"compound": "COc1cc(C(=O)NS(=O)(=O)c2ccccc2C)ccc1Cc1cn(C)c2ccc(NC(=O)OC3CCCC3)cc12 [zafirlukast, reference compound]", "IC50": "17 µM"}
{"compound": "O=C(Nc1cccc2c(=O)cc(-c3nnn[nH]3)oc12)c1ccc(OCCCCc2ccccc2)cc1 [pranlukast]", "IC50": "12 µM"}
{"compound": "CCOC(=O)c1cc(=O)c2cccc(NC(=O)c3ccc(OCCc4ccccc4)cc3)c2o1 [Compound 12]", "IC50": "> 50 µM"}
{"compound": "O=C(Nc1cccc2c(=O)cc(-c3nn[nH]n3)oc12)c1ccc(OCCCc2ccccc2)cc1 [Compound 25]", "IC50": "20 µM"}
{"compound": "COc1ccc(C(=O)Nc2cccc3c(=O)cc(C(=O)O)oc23)cc1 [Compound 21]", "IC50": "> 50 µM"}
{"compound": "CCOC(=O)c1cc(=O)c2cccc(NC(=O)c3ccc(OCCCCc4ccccc4)cc3)c2o1 [Compound 14]", "IC50": "> 50 µM"}
{"compound": "COc1ccc(C(=O)Nc2cccc3c(=O)cc(-c4nn[nH]n4)oc23)cc1 [Compound 24]", "IC50": "> 50 µM"}
{"compound": "O=C(Nc1cccc2c(=O)cc(C(=O)O)oc12)c1ccc(OCCc2ccccc2)cc1 [Compound 16]", "IC50": "40 µM"}
